# key: entry, value: inhibition
# Target Entity: MST4 (human) (UniProt Q9P289)
# Sequence (Q9P289 whole entry, looked up): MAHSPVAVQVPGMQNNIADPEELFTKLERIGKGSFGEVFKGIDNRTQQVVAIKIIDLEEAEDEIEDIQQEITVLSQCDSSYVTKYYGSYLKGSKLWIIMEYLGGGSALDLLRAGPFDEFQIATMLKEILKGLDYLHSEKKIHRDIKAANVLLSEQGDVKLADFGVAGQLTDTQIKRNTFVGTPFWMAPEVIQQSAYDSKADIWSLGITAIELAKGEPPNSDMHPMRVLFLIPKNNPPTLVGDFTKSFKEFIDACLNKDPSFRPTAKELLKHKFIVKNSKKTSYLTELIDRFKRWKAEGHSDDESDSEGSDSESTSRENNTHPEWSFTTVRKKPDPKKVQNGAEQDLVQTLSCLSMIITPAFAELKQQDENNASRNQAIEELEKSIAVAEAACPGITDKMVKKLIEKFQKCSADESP
# Method Summary: radiometric filter-binding kinase assay
# Condition Context: compound 100.0 µM; ATP 20 µM

For orientation, consider the following solved cases.
COc1ccc(-c2cc3c(=O)[nH]cnc3s2)cc1OC; 16%
O=C(Nc1cnc2[nH]ccn2c1=O)c1ccccc1; 7%
CC1CN(c2nc3ccccn3c(=O)c2N)CC(C)O1 (stereo unspecified); 2%
O=C(Nc1cnc2[nH]cnn2c1=O)c1ccccc1; 0%
O=C(c1cccc(-c2cc3c(=O)[nH]cnc3s2)c1)N1CCOCC1; 12%

# next compound below
Q: Look up inhibition: Nc1cnc2c(-c3c(F)cccc3F)cccn2c1=O
A: 77%

====

# Target Entity: CHEK2 (human) (UniProt O96017)
# Sequence (O96017 whole entry, looked up): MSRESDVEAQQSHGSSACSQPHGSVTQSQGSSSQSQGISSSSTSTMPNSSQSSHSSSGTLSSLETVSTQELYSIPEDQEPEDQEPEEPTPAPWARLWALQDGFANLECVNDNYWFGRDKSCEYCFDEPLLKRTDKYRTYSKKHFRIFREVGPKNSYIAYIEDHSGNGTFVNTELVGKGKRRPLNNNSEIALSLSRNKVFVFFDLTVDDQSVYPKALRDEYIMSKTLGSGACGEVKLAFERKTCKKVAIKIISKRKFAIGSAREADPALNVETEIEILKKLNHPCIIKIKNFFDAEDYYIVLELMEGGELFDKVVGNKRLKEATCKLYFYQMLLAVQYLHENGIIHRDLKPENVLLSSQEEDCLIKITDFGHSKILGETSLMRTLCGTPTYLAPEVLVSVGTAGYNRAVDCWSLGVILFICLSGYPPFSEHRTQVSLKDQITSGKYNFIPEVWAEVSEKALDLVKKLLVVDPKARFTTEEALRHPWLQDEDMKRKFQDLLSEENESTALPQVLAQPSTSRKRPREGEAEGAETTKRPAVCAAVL
# Method Summary: radiometric filter-binding kinase assay
# Condition Context: compound 100.0 µM; ATP 20 µM
Outcome: Condition met for inhibition of at least 20%; Condition not met for anything lower.

Q: # check: inhibition of Cc1cccc(C)c1-c1cn2nc(N)nc2cn1 is greater than or equal to 20%
A: Condition not met

Q: Follow-up entry: Nc1nc2cnc(-c3ccccc3)cn2n1
A: Condition met

Q: Let us now turn to O=c1cc(-c2ccccc2F)nc2[nH]ccn12
A: Condition not met

Q: Then CC(C)(C)Nc1c(COCc2ccccc2)nc2[nH]cnn12 ?
A: Condition not met

Q: Then this compound: CC1CN(c2nc3ccccn3c(=O)c2N)CC(C)O1 (stereo not given)
A: Condition not met

Q: Same thing, different compound: CC(=O)Nc1nc2cnc(-c3ccccc3)cn2n1
A: Condition met

Q: What about COc1ccc(-c2cc3c(=O)[nH]cnc3s2)cc1OC ?
A: Condition met

Q: Field entry: COc1ccc(NC(=S)Nc2cnc3[nH]cnn3c2=O)cn1
A: Condition not met

Q: Query O=C(Nc1cnc2[nH]ccn2c1=O)c1ccccc1 next
A: Condition met

Q: Queued: CC(=O)Nc1nc2cnc(-c3c(C)cccc3C)cn2n1
A: Condition not met

Q: // same read-out, input: O=C(c1cccc(-c2cc3c(=O)[nH]cnc3s2)c1)N1CCOCC1
A: Condition met

Q: Next up: Nc1cnc2c(-c3c(F)cccc3F)cccn2c1=O
A: Condition met

Q: CC(C)(C)Nc1c(C2CC2)nc2[nH]cnn12 , same question.
A: Condition not met

Q: Also check O=C(Nc1cnc2[nH]cnn2c1=O)c1ccccc1
A: Condition not met

====

# Target Entity: MINK1 (human)
# Method Summary: radiometric filter-binding kinase assay
# Condition Context: compound 100.0 µM; ATP 50 µM
Recorded Endpoint: inhibition (%)
# unit: % | format: bare number

CC(C)(C)Nc1c(C2CC2)nc2[nH]cnn12; 0
O=C(Nc1cnc2[nH]cnn2c1=O)c1ccccc1; 0

Please examine the following record next.
Q: Using the record for O=c1c(NC(=S)NCc2ccccc2)cnc2[nH]ccn12 , report its inhibition.
A: 0

====

# Target Entity: EPHB3 (human) (UniProt P54753)
# Sequence (P54753 whole entry, looked up): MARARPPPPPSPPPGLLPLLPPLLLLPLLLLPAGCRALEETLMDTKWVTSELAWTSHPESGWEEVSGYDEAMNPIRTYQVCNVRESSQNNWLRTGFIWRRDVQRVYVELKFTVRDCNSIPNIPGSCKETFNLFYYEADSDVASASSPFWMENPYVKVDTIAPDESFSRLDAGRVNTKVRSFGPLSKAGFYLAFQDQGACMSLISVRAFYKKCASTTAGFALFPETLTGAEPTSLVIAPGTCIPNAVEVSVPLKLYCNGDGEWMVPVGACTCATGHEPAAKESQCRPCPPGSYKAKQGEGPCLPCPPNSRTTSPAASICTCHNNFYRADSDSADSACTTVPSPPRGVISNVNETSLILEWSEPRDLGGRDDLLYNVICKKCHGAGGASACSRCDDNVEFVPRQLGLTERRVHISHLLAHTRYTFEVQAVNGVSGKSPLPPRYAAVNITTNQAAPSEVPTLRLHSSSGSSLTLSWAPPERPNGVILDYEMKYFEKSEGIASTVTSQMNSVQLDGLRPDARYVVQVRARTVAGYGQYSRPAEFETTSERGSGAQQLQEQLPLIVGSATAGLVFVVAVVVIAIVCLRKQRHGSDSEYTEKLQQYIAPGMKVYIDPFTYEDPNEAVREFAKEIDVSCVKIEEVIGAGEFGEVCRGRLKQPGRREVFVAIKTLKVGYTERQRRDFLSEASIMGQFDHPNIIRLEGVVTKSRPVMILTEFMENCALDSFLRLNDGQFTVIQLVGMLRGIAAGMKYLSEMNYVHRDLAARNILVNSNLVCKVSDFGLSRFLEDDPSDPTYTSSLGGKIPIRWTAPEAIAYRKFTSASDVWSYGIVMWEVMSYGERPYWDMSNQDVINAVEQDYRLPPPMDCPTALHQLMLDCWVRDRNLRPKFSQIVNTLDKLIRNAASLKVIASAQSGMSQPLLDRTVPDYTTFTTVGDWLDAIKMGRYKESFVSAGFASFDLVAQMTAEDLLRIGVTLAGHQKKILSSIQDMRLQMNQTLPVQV
# Method Summary: radiometric filter-binding kinase assay
# Condition Context: compound 100.0 µM; ATP 20 µM
Recorded Endpoint: inhibition (%)
Express it in %; write the number only.

Reference set, count: 3
COc1ccc(-c2cc3c(=O)[nH]cnc3s2)cc1OC; 0
O=C(c1cccc(-c2cc3c(=O)[nH]cnc3s2)c1)N1CCOCC1; 6
Cc1cccc(C)c1-c1cn2nc(N)nc2cn1; 35

Q: Would you mind telling me what inhibition value was observed for O=c1cc(-c2ccccc2F)nc2[nH]ccn12 ?
A: 0

Q: Same question, O=C(Nc1cnc2[nH]cnn2c1=O)c1ccccc1 this time
A: 0

Q: And for CC(C)(C)Nc1c(C2CC2)nc2[nH]cnn12 ?
A: 68

Q: What do you get for O=c1c(NC(=S)NCc2ccccc2)cnc2[nH]ccn12 ?
A: 0
